Values were extracted from ChEMBL document CHEMBL3988442.

- EXPERIMENTAL_TARGET: AMP-activated protein kinase, AMPK (Homo sapiens) (UniProt P54646+O43741+P54619+Q9UGJ0+Q9Y478+Q13131+Q9UGI9)
- ASSAY_DETAILS: AMP-dependent Kinase enzyme assay. An in vitro enzyme assay that detects ADP turnover that is directly proportional to AMPK activity. This uses naive AMPK that is activated during the assay with MK-8722
- Assay type: functional
- Design: scale not given: direction of the effect not stated beside the values
- CONDITION_SUMMARY: 30 µM
QUANTITY_KIND: Percent Effect (%)
Give the value in % but do not write % after it.

MOLECULE: CC(C)CS(=O)(=O)CC(=O)N(C)Cc1ccc(OC(F)F)cc1
RECORDED_MEASUREMENT: 4.52

Query: // returns reported Percent Effect for input Cc1cc(C(=O)N2CCCCC2c2nc(C)cs2)[nH]n1 (stereo unspecified)
Response: 0.468

Query: Name the reported Percent Effect value associated with the molecule `Cn1ccc2ccnc(CC3CN(C(=O)C4CCC(F)(F)CC4)C3)c21`
Response: 5.92

Query: Quick check: Percent Effect of `Cc1cccc(NC(=O)[C@@H]2CCCN2CC(=O)N2CCCCCC2)n1` ?
Response: -8.35

Query: Would you mind telling me what Percent Effect value was observed for `COC(=O)C1CCN(C(=O)CN2CCN(c3cccc(C)c3)CC2)CC1` ?
Response: 1.05

Query: Tell me the measured Percent Effect of `CN(C)S(=O)(=O)N1CCC[C@]2(C[C@@H](Oc3ccccn3)CO2)C1` , please.
Response: 2.82

* * *

Below, each entry is listed alongside its reported Percent Effect.
- EXPERIMENTAL_TARGET: Proteasome subunit beta (Trypanosoma cruzi)
- ASSAY_DETAILS: Trypanosoma cruzi proteasome chymotrypsin-like activity (TcProtChymo) assay. Note: in the data most compounds retested in dose-response had high values.
- Type: functional
- Parameters: scale not given: direction of the effect not stated beside the values
- CONDITION_SUMMARY: 9.37 µM
Give the value in % but do not write % after it.

Known results for compounds:
COMPOUND: CC(c1ccc(Cl)cc1)N1CCN(CCS(C)(=O)=O)CC1 (stereo unspecified)
Percent Effect / %: 14
--
COMPOUND: CC(C)c1nc(C(=O)N2CCCC(n3cncn3)C2)c[nH]1 (stereo unspecified)
Percent Effect / %: 12.9
--
COMPOUND: Cc1ccccc1-c1noc(CN2CCn3c(nnc3C3CC3)C2)n1
Percent Effect / %: 5.21
--
COMPOUND: CC(C)NC(=O)N1CC[C@@H]2CN(Cc3ccccc3)S(=O)(=O)[C@@H]2CC1
Percent Effect / %: 6.09
--
COMPOUND: O=C(Nc1cnccn1)[C@@H]1COC[C@H]2CN(C3CCCC3)C[C@H]21
Percent Effect / %: 3.97

Query: # query: Percent Effect of entry `CN1CCN(c2ncc3c(=O)n(-c4cccc(F)c4)c(=O)[nH]c3n2)CC1`
Response: 18.9

Query: Which Percent Effect value belongs to CC(C)c1cc(NCC(O)c2ccc(F)cc2)n2nccc2n1 (stereo unspecified) ?
Response: 3.97

Query: Quick one: Percent Effect of CCn1nc(C)c(CCNC(=O)C2CCCN(CC(N)=O)C2)c1C (stereo unspecified) ?
Response: 5.14

Query: Entry Cc1cc(C2CCCN2CCCS(=O)(=O)c2ccccc2)no1 (stereo unspecified) has what Percent Effect?
Response: -8.11

Query: Reported Percent Effect for COCCN1CCN(Cc2noc(C3CC3)n2)CC1C (stereo unspecified) : what is it?
Response: 10.7

Query: What measured Percent Effect goes with Cc1cnn(CC2CN(CC(=O)Nc3nnc(C)s3)CCO2)c1 (stereo unspecified) ?
Response: 6.01

* * *

- EXPERIMENTAL_TARGET: Chromo domain-containing protein 1 (Saccharomyces cerevisiae (strain ATCC 204508 / S288c) (Baker's yeast)) (UniProt P32657)
- Sequence (P32657 whole entry, the tested form may be a part): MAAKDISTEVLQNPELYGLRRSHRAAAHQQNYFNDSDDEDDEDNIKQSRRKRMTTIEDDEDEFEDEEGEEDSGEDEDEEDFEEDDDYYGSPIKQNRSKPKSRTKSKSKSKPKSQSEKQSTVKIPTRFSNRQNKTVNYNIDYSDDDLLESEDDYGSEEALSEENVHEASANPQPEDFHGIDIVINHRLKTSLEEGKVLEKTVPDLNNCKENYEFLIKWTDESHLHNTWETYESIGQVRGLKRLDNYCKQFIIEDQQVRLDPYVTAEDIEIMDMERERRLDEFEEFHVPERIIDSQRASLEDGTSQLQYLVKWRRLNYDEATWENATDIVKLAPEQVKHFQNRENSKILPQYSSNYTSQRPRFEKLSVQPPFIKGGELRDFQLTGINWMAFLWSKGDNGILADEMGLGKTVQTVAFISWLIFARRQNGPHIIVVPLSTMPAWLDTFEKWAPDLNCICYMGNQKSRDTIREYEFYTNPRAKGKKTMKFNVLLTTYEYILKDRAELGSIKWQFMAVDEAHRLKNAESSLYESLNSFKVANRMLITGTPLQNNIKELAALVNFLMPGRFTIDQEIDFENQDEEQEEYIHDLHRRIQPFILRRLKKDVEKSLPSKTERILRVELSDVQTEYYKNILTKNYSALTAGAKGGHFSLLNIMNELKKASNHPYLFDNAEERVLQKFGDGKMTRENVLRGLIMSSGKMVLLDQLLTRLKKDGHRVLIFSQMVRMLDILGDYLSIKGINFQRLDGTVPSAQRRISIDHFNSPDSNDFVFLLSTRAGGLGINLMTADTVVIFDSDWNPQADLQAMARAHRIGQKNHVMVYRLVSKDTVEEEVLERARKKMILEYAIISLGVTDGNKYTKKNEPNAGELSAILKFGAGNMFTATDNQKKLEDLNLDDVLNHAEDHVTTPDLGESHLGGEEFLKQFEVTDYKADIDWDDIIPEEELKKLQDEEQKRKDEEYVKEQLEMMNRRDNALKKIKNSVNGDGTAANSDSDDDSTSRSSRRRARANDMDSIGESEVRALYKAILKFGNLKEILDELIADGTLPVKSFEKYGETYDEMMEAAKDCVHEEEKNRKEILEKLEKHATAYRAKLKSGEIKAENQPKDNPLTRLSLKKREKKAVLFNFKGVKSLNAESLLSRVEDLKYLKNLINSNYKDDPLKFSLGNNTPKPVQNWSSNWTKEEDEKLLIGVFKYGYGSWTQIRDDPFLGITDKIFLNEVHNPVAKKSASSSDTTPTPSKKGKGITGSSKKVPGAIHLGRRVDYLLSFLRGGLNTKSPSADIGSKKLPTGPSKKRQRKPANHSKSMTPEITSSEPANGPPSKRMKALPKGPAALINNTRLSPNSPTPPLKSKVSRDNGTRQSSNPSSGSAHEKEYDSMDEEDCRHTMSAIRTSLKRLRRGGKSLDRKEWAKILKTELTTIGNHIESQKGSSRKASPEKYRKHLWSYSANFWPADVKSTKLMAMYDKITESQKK
- ASSAY_DETAILS: ScCHD-1 Enzyme Inhibition Assay; note: in the data most compounds retested in dose-response had high values
- Format: functional
- Parameters: scale not given: direction of the effect not stated beside the values
- CONDITION_SUMMARY: 30 µM
QUANTITY_KIND: Percent Effect (%)
The figure you give is taken to be in %; do not add the unit.

Look over these answered cases.
COMPOUND: O=C1NC2(CCN(Cc3nccs3)CC2)CC1c1ccncc1 (stereo not drawn)
Percent Effect / %: 0.471
//
COMPOUND: CC(O)CN1CCN(C(=O)c2ccc(N(C)C)nn2)CC1 (stereo not drawn)
Percent Effect / %: -9.31
//
COMPOUND: COc1cccc(OC)c1CN1CCC2(CC(Nc3ccncn3)C2)C1 (stereo not drawn)
Percent Effect / %: -14

Query: Percent Effect for O=C(CCCOc1ccccc1Cl)N1CCCC(n2cncn2)C1 (stereo not drawn) ?
Response: 0.499

Query: Give the measured Percent Effect of `Cc1c(O)oc(-c2ccc(Br)cc2)nc1=O` .
Response: -18.8

Query: So what does the record say about Percent Effect for `Cc1noc(C)c1C(=O)N1C[C@H]2CCC[C@@]2(COc2ccccn2)C1` ?
Response: -2.44

Query: Which measured Percent Effect value corresponds to COCCN(C)CCN1CC2(CCN(C3CCCOC3)CC2)OC1=O (stereo not drawn) ?
Response: -6.77

Query: What does the data say about its Percent Effect? Entry: Cc1cnn(CCNCC(O)COc2ccc(Cl)cc2)c1 (stereo not drawn)
Response: -2.04

Query: Could you tell me which Percent Effect is on file for Cc1cnc(CN2CCOC(CNc3cccnn3)C2)cn1 (stereo not drawn) ?
Response: -5.93

Query: Looking for the measured Percent Effect of `CN(C)c1cc(C(=O)N2CCN(c3cnccn3)CC2)ccn1` , can you help?
Response: -7.53

Query: Name the recorded Percent Effect for Cc1nn(C)c(C)c1C1CCCN1Cc1nc(C)c2ccccc2n1 (stereo not drawn) .
Response: -22.5

Query: Reported Percent Effect for `COC(=O)COc1nc(CC(C)C)c2c(c1C#N)CCCC2` : what is it?
Response: -4.12

* * *

- EXPERIMENTAL_TARGET: Tyrosyl-tRNA synthetase, putative (Trypanosoma cruzi (strain CL Brener))
- Sequence (whole entry): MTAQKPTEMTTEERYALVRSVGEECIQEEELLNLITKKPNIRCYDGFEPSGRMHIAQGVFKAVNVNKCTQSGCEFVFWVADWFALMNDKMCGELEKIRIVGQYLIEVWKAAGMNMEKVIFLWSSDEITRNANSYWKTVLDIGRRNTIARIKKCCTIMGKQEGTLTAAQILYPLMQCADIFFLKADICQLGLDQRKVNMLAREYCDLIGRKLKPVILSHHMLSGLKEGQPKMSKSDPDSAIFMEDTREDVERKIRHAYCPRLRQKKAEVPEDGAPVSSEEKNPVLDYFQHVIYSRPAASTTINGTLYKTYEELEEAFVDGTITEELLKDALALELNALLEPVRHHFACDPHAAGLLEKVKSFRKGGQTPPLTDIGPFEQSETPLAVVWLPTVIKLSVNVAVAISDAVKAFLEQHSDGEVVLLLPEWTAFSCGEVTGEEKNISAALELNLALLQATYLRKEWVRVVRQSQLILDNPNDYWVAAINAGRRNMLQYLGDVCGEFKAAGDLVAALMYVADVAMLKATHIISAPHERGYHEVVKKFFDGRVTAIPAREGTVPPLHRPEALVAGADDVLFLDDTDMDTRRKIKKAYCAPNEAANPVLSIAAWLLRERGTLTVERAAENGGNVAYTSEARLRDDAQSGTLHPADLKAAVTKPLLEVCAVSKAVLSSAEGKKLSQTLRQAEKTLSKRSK
- ASSAY_DETAILS: Trypanosoma cruzi tyrosyl tRNA synthetase (TcYRS) SOP
- Format: functional
- Set-up: scale not given: direction of the effect not stated beside the values
- CONDITION_SUMMARY: 30 µM
QUANTITY_KIND: Percent Effect
Answer with the figure and its unit, nothing else.

// worked examples, Percent Effect included
COMPOUND: CC1(C)CN(C(=O)NCCc2ccn(-c3ccccc3)n2)CCO1
EXPERIMENTAL_TARGET: Tyrosyl-tRNA synthetase, putative (Trypanosoma cruzi (strain CL Brener))
RECORDED_MEASUREMENT: 7.06%
--
COMPOUND: COc1ccc(C(C(=O)O)N2CCCN(C3CCCCC3)CC2)cn1 (centres undefined)
EXPERIMENTAL_TARGET: Tyrosyl-tRNA synthetase, putative (Trypanosoma cruzi (strain CL Brener))
RECORDED_MEASUREMENT: 21%
--
COMPOUND: CC(=O)NCC(=O)N1CCN(CC2CC2)c2ncccc2C1
EXPERIMENTAL_TARGET: Tyrosyl-tRNA synthetase, putative (Trypanosoma cruzi (strain CL Brener))
RECORDED_MEASUREMENT: 16.7%

Query: Returns the measured Percent Effect for the input compound. Input: CCc1ccc(S(=O)(=O)N2CCC3(CC(C(=O)NC)=NO3)C2)cc1 (centres undefined)
Response: 5.13%

Query: Which Percent Effect value belongs to `Cc1nc2c(c(C)c1CC(=O)NCc1cccc(C#N)c1)c(=O)[nH]n2C` ?
Response: 11.8%
